protocol notes: in vivo
condition notes: female, ICR CD-1, mouse, plasma, sc, 50 mg kg^−1
Where a SMILES comes first, the peptide text is derived from it. Bridges are numbered along the chain shown (N, C = ends). [ ]: non-standard residue; d: D form. dOrn = NCCC[C@@H](N)C(=O)O
endpoint name: half-life

Enquiry: Look up half-life: C[C@@H](O)[C@@H]1NC(=O)[C@@H](CCCNC(=N)N)NC(=O)[C@@H](CCCNC(=N)N)NC(=O)[C@@H](CC(N)=O)NC(=O)[C@@H](NC(=O)[C@@H](Cc2ccccc2)NC(=O)[C@@H](CCCN)NC(=O)[C@H](N)CCCNC(=N)N)[C@@H](C)OC(=O)[C@H](Cc2c[nH]cn2)NC1=O [MKM-A, manikomycin] (H-[dR][dOrn][dF]T[dN][dR][dR]TH; ester 4-C)
Return: ~36 min
